- TESTED_TARGET: Endoribonuclease toxin MazF (Escherichia coli K-12, UniProt P0AE70)
- Sequence (P0AE70 whole entry): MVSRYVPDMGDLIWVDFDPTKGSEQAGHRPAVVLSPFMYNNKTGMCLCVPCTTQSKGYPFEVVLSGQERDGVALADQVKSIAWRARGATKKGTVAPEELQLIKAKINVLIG
- PROTOCOL_SUMMARY: fluorescent RNA oligo signal without MazF, dose response, counter-screen for MazEF activator project, biochemical, fluorescence, single-stranded RNase substrate (AID 588502)
- Format: functional
The source made the active and inactive calls.
QUANTITY: EC50

Example compounds with recorded EC50:
C=CCN1C(=O)/C(=C2/Sc3ccccc3N2CC)SC1=S: 56.1 µM (inactive)
COc1cc(NC(=O)c2ccccc2)c(OC)cc1NC(=O)Cc1ccc(Br)cc1: > 99 µM (inactive)

input: Fill blank: measured EC50 of the compound Cc1cc(C)n(-c2nc3nonc3nc2Nc2cccc(C)c2C)n1 is ____.
output: > 99 µM (inactive)

input: Fill blank: measured EC50 of the compound N#CC(C(=O)NCc1ccccc1)c1nc2ccccc2nc1N1CCCC1 (centres undefined) is ____.
output: > 99 µM (inactive)

input: Fill blank: measured EC50 of the compound CCc1ccc(C2=NN(S(C)(=O)=O)C(c3cccs3)C2)cc1 (centres undefined) is ____.
output: > 99 µM (inactive)

input: Fill blank: measured EC50 of the compound O=c1c(O)c(-c2ccc(O)c(O)c2)oc2cc(O)ccc12 is ____.
output: > 99 µM (inactive)

----------
- TESTED_TARGET: Sentrin-specific protease 8 (Homo sapiens, UniProt Q96LD8);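 note: luminescence read-out of SENP8 inhibition, dose-response confirmation following an ultra-high-throughput screen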
- Sequence (Q96LD8 whole entry): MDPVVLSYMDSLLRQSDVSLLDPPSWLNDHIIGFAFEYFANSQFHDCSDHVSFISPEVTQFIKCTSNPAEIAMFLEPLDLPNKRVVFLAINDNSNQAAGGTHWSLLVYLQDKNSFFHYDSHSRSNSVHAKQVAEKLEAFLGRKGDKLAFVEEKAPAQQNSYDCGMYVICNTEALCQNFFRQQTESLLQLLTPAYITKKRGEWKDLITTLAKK
- Type: functional
Activity calls are given as the source filed them.
QUANTITY: IC50

Example compounds with recorded IC50:
CC(C)=CCC1=C(OCC(=O)O)C(=O)c2ccccc2C1=O: 3.91 µM (active)
COc1cccc(-c2nc(=S)c3c(o2)CCCC3)c1: 27.4 µM (active)
C#CCN1C(=O)S/C(=C\c2ccc(-c3ccc(Cl)c(C(=O)O)c3)o2)C1=O: 14.9 µM (active)
COc1ccc(C(=N)NOC(=O)C2CCCCC2)cc1: 44.1 µM (active)
O=C(COC(=O)c1ccc([N+](=O)[O-])s1)NNC(=O)c1ccccc1: 4.2 µM (active)

Then this compound:
input: Fill blank: measured IC50 of the compound Cc1cc(C(=O)Nc2ccc(N3CCCC3)c(Cl)c2)ccc1[N+](=O)[O-] is ____.
output: > 100 µM (inactive)

----------
- TESTED_TARGET: RNA-binding protein pos-1 (Caenorhabditis elegans)
- Sequence (G5EF15 whole entry, the tested form may be a part): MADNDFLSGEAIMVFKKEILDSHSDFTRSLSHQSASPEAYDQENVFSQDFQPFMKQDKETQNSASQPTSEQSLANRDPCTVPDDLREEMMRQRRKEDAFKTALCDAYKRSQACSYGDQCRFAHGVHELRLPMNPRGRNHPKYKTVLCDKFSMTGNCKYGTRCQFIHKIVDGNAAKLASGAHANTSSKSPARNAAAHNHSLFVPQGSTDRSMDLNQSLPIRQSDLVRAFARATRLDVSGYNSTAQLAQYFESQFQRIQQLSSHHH
- PROTOCOL_SUMMARY: inhibitors of POS-1/mex-3 RNA binding, dose response, biochemical, fluorescence polarization (AID 1964);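 note: purified POS-1 fused to maltose binding protein made in E. coli; potency of compounds blocking POS-1 binding to fluorescent RNA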
Active and inactive are the calls of the source.
Examples of compounds with documented EC50 follow.

Example compounds with recorded EC50:
O=C(O)c1cc(-c2ccc(/C=C3\NC(=O)N(c4ccc(Cl)cc4)C3=O)o2)ccc1Cl: 39.7 µM (active)
CCN(CC)CCN/C=C1/C(=O)NC(=O)N(Cc2ccccc2)C1=O: > 300 µM (not active)
CC(=O)Nc1ccc(/C=C/C(=O)c2ccc3c(c2)OCCO3)cc1: > 300 µM (not active)
C=CCN1C(=O)/C(=C2/Sc3ccccc3N2CC)SC1=S: 16.1 µM (active)
O=C(NCCN1CCOCC1)c1cccn2c(=O)c3c4c(sc3nc12)CCCC4: > 300 µM (not active)

input: Query the reported EC50 for RNA-binding protein pos-1 (Caenorhabditis elegans); item: O=C(NCc1ccccn1)C1Nc2ccc(C(F)(F)F)cc2C2C=CCC12 (stereo unspecified)
output: > 300 µM (not active)

input: Query the reported EC50 for RNA-binding protein pos-1 (Caenorhabditis elegans); item: N=C1/C(=C\c2ccc(SCc3ccco3)o2)C(=O)N=C2SC=NN12
output: > 300 µM (not active)

input: Query the reported EC50 for RNA-binding protein pos-1 (Caenorhabditis elegans); item: O=c1[nH][nH]c2cc(=O)n(-c3ccc(Cl)cc3)nc12
output: 15.4 µM (active)

input: Query the reported EC50 for RNA-binding protein pos-1 (Caenorhabditis elegans); item: Oc1[nH]c2ccc(Br)cc2c1N=Nc1nn[nH]n1
output: 14 µM (active)

input: Query the reported EC50 for RNA-binding protein pos-1 (Caenorhabditis elegans); item: CC1=CC(C#N)(C#N)C(C#N)(C#N)C(c2ccccc2)N1 (stereo unspecified)
output: 3.14 µM (active)

input: Query the reported EC50 for RNA-binding protein pos-1 (Caenorhabditis elegans); item: O=c1cc(-c2ccccc2Cl)oc2c(NS(=O)(=O)c3cc(Cl)cc(Cl)c3O)ccc(O)c12
output: > 300 µM (not active)

input: Query the reported EC50 for RNA-binding protein pos-1 (Caenorhabditis elegans); item: N#CC(C(=O)NCc1ccccc1)c1nc2ccccc2nc1N1CCCC1 (stereo unspecified)
output: > 300 µM (inconclusive)

input: Query the reported EC50 for RNA-binding protein pos-1 (Caenorhabditis elegans); item: COc1ccc(C2C(C#N)=C(N)OC3=C2C(=O)CC(C)(C)C3)cc1Cn1cc([N+](=O)[O-])cn1 (stereo unspecified)
output: > 300 µM (not active)

input: Query the reported EC50 for RNA-binding protein pos-1 (Caenorhabditis elegans); item: C=CCOc1ccc(C2C(C(=O)c3cccs3)=C(O)C(=O)N2c2nnc(C)s2)cc1 (stereo unspecified)
output: 10.8 µM (inconclusive)

input: Query the reported EC50 for RNA-binding protein pos-1 (Caenorhabditis elegans); item: NS(=O)(=O)c1ccc(Nc2nc(-c3ccc(O)cc3O)cs2)cc1
output: 17.1 µM (active)

input: Query the reported EC50 for RNA-binding protein pos-1 (Caenorhabditis elegans); item: COc1ccc(C2C(C#N)=C(N)OC3=C2C(=O)CC(C)(C)C3)cc1Cn1nc(C)c([N+](=O)[O-])c1C (stereo unspecified)
output: > 300 µM (not active)
